Molecular target: T1, PUF4 RNA-binding domain (Saccharomyces cerevisiae, UniProt P25339 537-888)
T1 sequence: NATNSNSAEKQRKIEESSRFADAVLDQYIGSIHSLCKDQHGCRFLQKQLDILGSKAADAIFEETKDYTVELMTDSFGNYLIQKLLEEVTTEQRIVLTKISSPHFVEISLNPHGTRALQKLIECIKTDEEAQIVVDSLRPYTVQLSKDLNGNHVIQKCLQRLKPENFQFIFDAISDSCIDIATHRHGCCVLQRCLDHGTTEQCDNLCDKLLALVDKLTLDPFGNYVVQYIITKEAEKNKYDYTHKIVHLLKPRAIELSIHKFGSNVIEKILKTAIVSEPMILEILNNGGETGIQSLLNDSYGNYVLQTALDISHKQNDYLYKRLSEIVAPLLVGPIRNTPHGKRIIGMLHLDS
Test: Mg; RNA-MaP; 20 mM Na-HEPES pH 7.4, 30 mM KOAc, 0.75 mM MgCl2, 0.1% Tween-20, 5% glycerol, 0.1 mg/mL BSA, 2 mM DTT; 25 C; 0.0125-409.6 nM protein
Conditions: tags: N-His6-TEV cleaved; C-SNAP kept, Cy3B-labelled; label: tethered on chip by stalled RNA polymerase
observedProperty: Kd (µM)

binder: UCUCUUAUUGUAUAUAAAUCUCUU (ssRNA) [Id_ii_S1_P3E.2_K3.1_C3.2_[C-2A]_H3.1_A3.1_F3.1_T3.2_[T9A]]
observed: 0.0139

binder: Ie_S2_P3E.2_K3.1_C3.2_H3.1_A3.1_F3.1_[+8TCT]_T3.2 (ssRNA) RNA: UUUGAUUAAUAUGAUAUCGUUCUUUCUCUUGUAUAUAUCUUAUUCUUUCUCGAUAUCAUAUUAAUCUUU
observed: 0.00219

binder: UCUCUUUGUAUCAAUUCUCUU (ssRNA) [Ic_S1_P4E.1_K4.1_C4.1_H4.1_A4.1_[A6C]_[T7A]_F4.1_[T8A]_[A9T]_T4.1]
observed: 0.0915
